# targetSystem: recombinant human tissue transglutaminase (Homo sapiens)
# Construct: made in house
# Sequence (P21980 whole entry): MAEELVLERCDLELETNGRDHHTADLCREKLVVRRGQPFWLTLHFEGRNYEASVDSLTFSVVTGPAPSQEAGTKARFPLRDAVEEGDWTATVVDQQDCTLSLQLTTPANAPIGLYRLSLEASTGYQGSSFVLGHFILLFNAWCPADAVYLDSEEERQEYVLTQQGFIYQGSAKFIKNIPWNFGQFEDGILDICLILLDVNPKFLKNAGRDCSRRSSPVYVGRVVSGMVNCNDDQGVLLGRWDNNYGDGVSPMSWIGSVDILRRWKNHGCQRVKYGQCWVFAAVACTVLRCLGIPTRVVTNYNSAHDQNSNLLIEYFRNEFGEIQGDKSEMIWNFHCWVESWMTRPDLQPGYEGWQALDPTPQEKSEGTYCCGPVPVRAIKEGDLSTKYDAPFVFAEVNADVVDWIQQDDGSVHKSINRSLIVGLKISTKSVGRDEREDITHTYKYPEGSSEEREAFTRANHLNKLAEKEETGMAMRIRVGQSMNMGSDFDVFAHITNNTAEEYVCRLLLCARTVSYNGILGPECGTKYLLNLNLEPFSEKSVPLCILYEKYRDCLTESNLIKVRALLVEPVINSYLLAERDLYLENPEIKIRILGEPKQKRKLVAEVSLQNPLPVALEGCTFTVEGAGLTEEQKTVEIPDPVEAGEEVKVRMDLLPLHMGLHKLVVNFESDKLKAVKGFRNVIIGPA
# protocol: tTGase assay with recombinant human tissue transglutaminase
# Type: biochemical
# conditionInfo: dihydroisoxazole inhibitors of human tTGase
Classification field: yes (1) = kinh/Kl at or over 2000 min^−1M^−1; no (0) = kinh/Kl under 2000 min^−1M^−1.

CN(CC1CC(Br)=NO1)C(=O)[C@H](Cc1ccccc1)NC(=O)OCc1ccccc1 (stereo partly shown) [2b] ... no (0)
O=C(N[C@@H](Cc1ccc(O)cc1)C(=O)NCC1CC(Br)=NO1)OCc1ccc2ccccc2c1 (stereo partly shown) [3e] ... no (0)
O=C(N[C@@H](Cc1ccccc1)C(=O)OCC1CC(Br)=NO1)OCc1ccccc1 (stereo partly shown) [2a] ... no (0)
CC(=O)N[C@@H](Cc1ccccc1)C(=O)NCC1CC(Br)=NO1 (stereo partly shown) [3a] ... no (0)
O=C(N[C@@H](Cc1c[nH]c2ccc(O)cc12)C(=O)NCC1CC(Br)=NO1)OCC1=Cc2ccccc2S1(=O)=O (stereo partly shown) [compound 4] ... yes (1)

[ask] Could you please find out whether O=C(N[C@@H](Cc1c[nH]c2ccc(O)cc12)C(=O)NCC1CC(Br)=NO1)OCc1ccccc1 (stereo partly shown) [1f] has kinh/Kl that meets 2000 min^−1M^−1 or exceeds it?
[reply] yes (1)

[ask] Now the compound O=C(N[C@@H](Cc1ccc(O)cc1)C(=O)NCC1CC(Br)=NO1)OCC1=Cc2ccccc2S1(=O)=O (stereo partly shown) [3f]
[reply] yes (1)

[ask] Now the compound O=C(N[C@@H](Cc1ccc(O)cc1)C(=O)NCC1CC(Br)=NO1)OCc1ccncc1 (stereo partly shown) [3b]
[reply] no (0)

[ask] Now the compound C[C@H](NC(=O)OCc1ccccc1)C(=O)NCC1CC(Br)=NO1 (stereo partly shown) [1i]
[reply] no (0)

[ask] Now the compound O=C(C[C@H](NC(=O)OCc1ccccc1)C(=O)NCC1CC(Br)=NO1)NCc1ccccc1 (stereo partly shown) [1g]
[reply] yes (1)

====

# targetSystem: Tissue transglutaminase (tTG) (Homo sapiens, UniProt P21980)
# Sequence (P21980 whole entry): as above
# protocol: Inhibition of tTG (residual activity, glutamate dehydrogenase coupled assay)
# Type: biochemical
# conditionInfo: dihydroisoxazoles; 200 mM MOPS, pH=7.1, 30° C.; read-out: KI
endpointLabel: Ki (µM)
// note: answer is a bare numeric in µM

Solved entries (count: 4):
Cc1ccc(C)c(NC(=O)NCC2CC(Br)=NO2)c1 (centres unmarked) ... 960
O=C(NCC1CC(Br)=NO1)Nc1ccc(F)cc1 (centres unmarked) ... 1300
O=C(NCC1CC(Br)=NO1)Nc1cc(C(F)(F)F)ccc1Cl (centres unmarked) ... 910
O=C(NCC1CC(Br)=NO1)Nc1ccccc1 (centres unmarked) ... 1100

Let us examine a further case.
[ask] Find the recorded Ki belonging to O=C(NCC1CC(Br)=NO1)Nc1ccc(Cl)cc1C(F)(F)F (centres unmarked) and report it.
[reply] 1300

====

# targetSystem: Tissue transglutaminase (tTG) (Homo sapiens, UniProt P21980)
# protocol: Inhibition of tTG (residual activity, glutamate dehydrogenase coupled assay)
# Assay type: biochemical
# conditionInfo: isatin derivatives; reversible, competitive inhibition constant; read-out: Kl
endpointLabel: Ki (µM)
// note: answer is a bare numeric in µM

Solved entries (count: 5):
O=C1Nc2ccc(F)cc2C1=O ... 18
O=C1Nc2c(cccc2-c2ccccc2)C1=O ... 400
O=C1Nc2cc(-c3ccccc3)ccc2C1=O ... 350
O=C1Nc2ccc(I)cc2C1=O ... 22
O=C1Nc2ccc([N+](=O)[O-])cc2C1=O ... 48

[ask] Field: Ki (Tissue transglutaminase (tTG) (Homo sapiens, UniProt P21980)). Entry: O=C1Nc2ccccc2C1=O
[reply] 860
